Assay: Protective index, ratio of TD50 for toxicity in Albino mouse assessed as median neurotoxicity dose at ip administration by rotorod test to ED50 for anticonvulsant activity in Albino mouse assessed as protection against maximal electroshock induced seizure at ip administration
Format: organism-based
Details: in vivo, read-out: Ratio TD50/ED50
Can you tell me selectivity ratio for the items I'm about to list?
Please give the numeric answer without any surrounding text.

Qu. // lookup selectivity ratio for "CN(C)c1ccc(/C=N/Nc2nnc(-c3ccccc3)nc2Cc2cccc(Cl)c2)cc1"
Ans. 8.01

Qu. State the recorded selectivity ratio for this entry: "CN(C)c1ccc(/C=N/Nc2nnc(-c3ccccc3)nc2Cc2ccc(Cl)cc2)cc1"
Ans. 7.82

###

Give IC50 for every item shown.
Test: Displacement of 3[H]BTX from rat brain membrane voltage-sensitive sodium channel incubated for 1.5 hrs by scintillation counting analysis
Assay type: cell membranes
// return numeric value only (unit: mM, not printed)

Qu. Reported IC50 for "NC(=O)N1c2ccccc2C/C(=N/O)c2ccccc21" : what is it?
Ans. 0.418

Qu. // lookup IC50 for NC(=O)N1c2ccccc2CC([N+](=O)[O-])c2ccccc21 (configuration not stated)
Ans. 2.29

###

Assign selectivity ratio to each entry below.
Assay: Protective index, ratio of TD50 for toxicity in Sc-PTZ induced Swiss albino mouse seizure model assessed as median neurotoxicity dose at po administration by rotorod test to ED50 for anticonvulsant activity in Swiss albino mouse assessed as protection against Sc-PTZ induced seizure at po administration
Assay type: organism-based
Conditions: in vivo, read-out: Ratio TD50/ED50
No unit in the answer, please; the number alone is enough.

Qu. I would be grateful if you could share the reported selectivity ratio for C=C(C)CC(CCC)C(=O)O (racemic) .
Ans. 2.05

Qu. I'd like to know its selectivity ratio. The compound in question is C=CCC(CC(C)C)C(=O)O (racemic)
Ans. 3.2

###

Test: Displacement of 3[H]BTX from rat cerebral cortical synaptosomes voltage-sensitive sodium channel incubated for 1.5 hrs by scintillation counting analysis
Format: subcellular, Cerebral cortex, Synaptosome
Provide the recorded pIC50 for the entries that follow.
Quick note: pIC50 means taking -log10 of the concentration in moles per liter.

Qu. Name the recorded pIC50 for "CC(=O)O[C@@H]1Cc2ccccc2N(C(N)=O)c2ccccc21" .
Ans. 3.85

Qu. Entry CC(=O)O[C@H]1Cc2ccccc2N(C(N)=O)c2ccccc21 [ESLICARBAZEPINE ACETATE] : reported pIC50 = ?
Ans. 3.95

Qu. What measured pIC50 goes with CC(=O)OC1Cc2ccccc2N(C(N)=O)c2ccccc21 (stereo not drawn) ?
Ans. 3.86

###

Assay: Protective index, ratio of TD50 for toxicity in CD-1 mouse assessed as median toxicity dose at ip administration by rotorod test to ED50 for anticonvulsant activity in CD-1 mouse assessed as protection against maximal electroshock induced seizure at ip administration
Type: organism-based
Details: in vivo, read-out: Ratio TD50/ED50
readoutLabel: selectivity ratio

Qu. Entry CC1(c2ccccc2)CC(=O)N(CCC(=O)N2CCN(c3ccccc3F)CC2)C1=O (stereo unspecified) : reported selectivity ratio = ?
Ans. > 3.83

###

Test: Hepatotoxicity in rat assessed as total albumin level at 100 mg/kg,ip administrated for 2 hrs by spectrophotometric method
Assay type: toxicity, organism-based
Conditions: in vivo
readoutLabel: Activity (g/dL)
Entry rule: numbers only, all in g/dL.

Qu. Any idea what Activity was measured for "Nc1ccc(Cl)cc1-c1n[nH]c(=O)n(-c2ccc(O)cc2)c1=O" ?
Ans. 1.61

###

Assay: Protective index, ratio of TD50 for toxicity in Wistar rat assessed as median toxicity dose at po administration for 2 hrs by rotorod test to ED50 for anticonvulsant activity in Wistar rat assessed as protection against maximal electroshock induced seizure at po administration for 2 hrs
Format: organism-based
Settings: in vivo, read-out: Ratio TD50/ED50
readoutLabel: selectivity ratio at 2 h

Qu. Name the recorded selectivity ratio at 2 h for "NC(=O)N1c2ccccc2C/C(=N/O)c2ccccc21" .
Ans. > 166

###

Assay: Hepatotoxicity in rat assessed as total protein level at 100 mg/kg,ip administrated for 2 hrs by spectrophotometric method
Format: toxicity, organism-based
Conditions: in vivo
readoutLabel: Activity (g/dL)
Please state the figure in g/dL; there is no need to write the unit.

Qu. Sample "Nc1ccc(Cl)cc1-c1n[nH]c(=O)n(-c2ccc(O)cc2)c1=O" — what was its Activity?
Ans. 4.78

###

Test: Protective index, ratio of TD50 for toxicity in rat assessed as median toxicity dose at po administration by rotorod test to ED50 for anticonvulsant activity in rat assessed as protection against maximal electroshock induced seizure at po administration
Assay type: organism-based
Details: in vivo, read-out: Ratio TD50/ED50
readoutLabel: selectivity ratio
# output: bare number, no unit

Qu. Recorded selectivity ratio for "CC1(C)C(C(=O)NC(N)=O)C1(C)C" , please?
Ans. 18.5

###

Assay: Protective index, ratio of TD50 for toxicity in Wistar rat assessed as median toxicity dose at po administration for 4 hrs by rotorod test to ED50 for anticonvulsant activity in Wistar rat assessed as protection against maximal electroshock induced seizure at po administration for 4 hrs
Format: organism-based
Settings: in vivo, read-out: Ratio TD50/ED50
readoutLabel: selectivity ratio at 4 h

Qu. Quick one: selectivity ratio at 4 h for "NC(=O)N1c2ccccc2C/C(=N/O)c2ccccc21" ?
Ans. > 100

###

Experiment: Protective index, ratio of TD50 for toxicity in Wistar rat assessed as median toxicity dose at po administration by rotorod test to ED50 for anticonvulsant activity in Wistar rat assessed as protection against maximal electroshock induced seizure at po administration
Format: organism-based
Details: in vivo, read-out: Ratio TD50/ED50
readoutLabel: selectivity ratio
// keep it numeric: no unit symbol after the value

Qu. Need selectivity ratio of CC(=O)O[C@H]1Cc2ccccc2N(C(N)=O)c2ccccc21 [ESLICARBAZEPINE ACETATE] , thanks.
Ans. 76.3

###

Experiment: Toxicity in Swiss albino mouse assessed as median toxicity dose at ip administration
Assay type: organism-based
Conditions: in vivo
readoutLabel: TD50
Write the quantity with the unit trailing the number.

Qu. Given the compound "CCCC(CCC)C(=O)N/N=C/c1ccncc1" , what is its reported TD50?
Ans. 346 mg/kg

Qu. Request the reported TD50 associated with "CCCC(CCC)c1nnc(S)n1-c1ccccc1"
Ans. 371 mg/kg

Qu. GET /values?readout=TD50&item= "CCCC(CCC)c1nnc(Nc2ccccc2)s1"
Ans. 419 mg/kg

Qu. Item under review: "CCCC(CCC)C(=O)N/N=C/c1cc(OC)ccc1OC" . Reported TD50?
Ans. 457 mg/kg

Qu. # query: TD50 of entry COc1cc(C2CC(c3ccc(O)cc3)=NC(=S)N2C2=NC(=O)NNC2)ccc1O (stereo unspecified)
Ans. 412 mg/kg

Qu. Give the measured TD50 of O=C1N=C(N2C(=S)N=C(c3ccc(F)cc3)CC2c2ccc(O)cc2)CNN1 (stereo unspecified) .
Ans. 389 mg/kg

###

Test: Protective index, ratio of TD50 for toxicity in Sprague-Dawley rat at po administration to ED50 for anticonvulsant activity in Sprague-Dawley rat assessed as protection against pilocarpine induced epilepticus at po administration
Type: organism-based
Settings: in vivo, read-out: Ratio TD50/ED50
readoutLabel: selectivity ratio

Qu. Returns the measured selectivity ratio for the input compound. Input: CCCC(CC)C(=O)NOC (stereo unspecified)
Ans. > 5.5

###

Assay: Neurotoxicity in CD-1 mouse assessed as lethal dose at po administration for 30 mins
Type: toxicity, organism-based
Details: in vivo
readoutLabel: LD50 at 0.5 h (mg/kg)
Entry rule: numbers only, all in mg/kg.

Qu. Value lookup for LD50 at 0.5 h; key = "CCCC(CCC)C(=O)Nc1ccccc1O"
Ans. 937

###

Provide the reported selectivity ratio of each item.
Assay: Protective index, ratio of TD50 for toxicity in Albino mouse assessed as median neurotoxicity dose at ip administration by rotorod test to ED50 for anticonvulsant activity in Albino mouse assessed as protection against Sc-PTZ induced seizure at ip administration
Assay type: organism-based
Conditions: in vivo, read-out: Ratio TD50/ED50
Write the number on its own, no unit after it.

Qu. Entry "CN(C)c1ccc(/C=N/Nc2nnc(-c3ccccc3)nc2Cc2cccc(Cl)c2)cc1" has what selectivity ratio?
Ans. 4.73

Qu. Requested field: selectivity ratio. Item: "CN(C)c1ccc(/C=N/Nc2nnc(-c3ccccc3)nc2Cc2ccc(Cl)cc2)cc1"
Ans. 4.29

###

Test: Toxicity in Swiss CD-1 mouse assessed as mortality at 100 mg/kg,ip
Type: organism-based
Details: in vivo
Kindly supply the reported mortality values for the records listed here.
Report only the number, with the unit % understood.

Qu. Find the recorded mortality belonging to "CCOc1ccccc1N1CCN(CCCN2CCCC2=O)CC1" and report it.
Ans. 25

Qu. Consider the molecule shown here: "COc1ccccc1N1CCN(CCCN2CCCC2=O)CC1" What is its recorded mortality?
Ans. 25

Qu. mortality for O=C1CCCN1CC(O)CN1CCN(c2ccccc2O)CC1 (stereo not drawn) ?
Ans. 14.2
